# Tested on: Muscarinic acetylcholine receptor M4 (Homo sapiens, UniProt P08173)
# Sequence (P08173 whole entry): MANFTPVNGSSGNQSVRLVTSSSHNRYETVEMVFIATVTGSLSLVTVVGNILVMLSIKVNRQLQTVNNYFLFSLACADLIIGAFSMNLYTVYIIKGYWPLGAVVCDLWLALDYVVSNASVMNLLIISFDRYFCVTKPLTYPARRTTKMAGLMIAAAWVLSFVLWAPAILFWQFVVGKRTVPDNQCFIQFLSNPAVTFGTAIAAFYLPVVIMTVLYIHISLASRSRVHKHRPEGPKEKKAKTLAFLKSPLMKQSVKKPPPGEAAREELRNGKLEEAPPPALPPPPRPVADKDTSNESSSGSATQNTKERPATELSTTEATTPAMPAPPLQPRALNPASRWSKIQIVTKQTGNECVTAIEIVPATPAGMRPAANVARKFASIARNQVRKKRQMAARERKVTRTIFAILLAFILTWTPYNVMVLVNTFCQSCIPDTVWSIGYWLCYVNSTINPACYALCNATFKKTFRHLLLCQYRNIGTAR
# Assay comment: Antagonist activity at human M4 receptor expressed in CHO cells coexpressing Gqi5 by calcium mobilization assay
# Format: functional, cell-based

Query smiles	Units	IC50
CCCN(c1ccc(C)nc1)C1CCN(c2ncnc3sc(C)c(C)c23)CC1	nM	2400
CCCCN(c1ccc(C)nc1)C1CCN(c2ncnc3sc(C)c(C)c23)CC1	nM	1500

----------
# Tested on: UniProt P08173
# Assay comment: Positive allosteric modulation of human M4 receptor expressed in CHO cells coexpressing Gqi5 by calcium mobilization assay
# Format: functional, cell-based
# Condition context: read-out: EC50
pEC50: −log10 of the molar value.
The threshold is inclusive: pEC50 of exactly 6 counts as fulfilled; values below receive not fulfilled.

Query smiles	Qualitative label
Cc1sc2ncnc(N3CCC(C(=O)Nc4cc(Cl)ccc4Cl)CC3)c2c1C	not fulfilled
Cc1sc2ncnc(N3CCC(C(=O)N4CCCC(F)(F)C4)CC3)c2c1C	not fulfilled
Cc1sc2ncnc(N3CCC(Oc4ccc(Cl)nc4)CC3)c2c1C	not fulfilled
Cc1sc2ncnc(N3CCC(Oc4ccc(F)nc4)CC3)c2c1C	not fulfilled
Cc1ccc(OC2CCN(c3ncnc4sc(C)c(C)c34)CC2)cn1	fulfilled
Cc1sc2ncnc(N3CCC(C(=O)Nc4ccc(S(N)(=O)=O)cc4)CC3)c2c1C	fulfilled
Cc1ncc(OC2CCN(c3ncnc4sc(C)c(C)c34)CC2)cn1	not fulfilled
Cc1sc2ncnc(N3CCC(C(=O)Nc4ccc(N5CCNC5=O)cc4)CC3)c2c1C	not fulfilled
Cc1sc2ncnc(N3CCC(C(N)=O)CC3)c2c1C	not fulfilled
Cc1sc2ncnc(N3CCC(C(=O)NCc4ccc(S(N)(=O)=O)cc4)CC3)c2c1C	not fulfilled
Cc1sc2ncnc(N3CCC(C(=O)N4CCOCC4)CC3)c2c1C	not fulfilled
CNC(=O)c1ccc(NC(=O)C2CCN(c3ncnc4sc(C)c(C)c34)CC2)cc1	fulfilled
Cc1sc2ncnc(N3CCC(C(=O)Nc4ccc(F)cc4Cl)CC3)c2c1C	not fulfilled
Cc1ccc(OC2CCN(c3ncnc4ccc(F)cc34)CC2)cn1	fulfilled
Cc1sc2ncnc(N3CCC(Oc4ccc5c(c4)CCO5)CC3)c2c1C	not fulfilled
Cc1sc2ncnc(N3CCC(C(=O)Nc4ccc(C(N)=O)cc4)CC3)c2c1C	fulfilled

----------
# Tested on: Muscarinic acetylcholine receptor M3 (Homo sapiens, UniProt P20309)
# Sequence (P20309 whole entry): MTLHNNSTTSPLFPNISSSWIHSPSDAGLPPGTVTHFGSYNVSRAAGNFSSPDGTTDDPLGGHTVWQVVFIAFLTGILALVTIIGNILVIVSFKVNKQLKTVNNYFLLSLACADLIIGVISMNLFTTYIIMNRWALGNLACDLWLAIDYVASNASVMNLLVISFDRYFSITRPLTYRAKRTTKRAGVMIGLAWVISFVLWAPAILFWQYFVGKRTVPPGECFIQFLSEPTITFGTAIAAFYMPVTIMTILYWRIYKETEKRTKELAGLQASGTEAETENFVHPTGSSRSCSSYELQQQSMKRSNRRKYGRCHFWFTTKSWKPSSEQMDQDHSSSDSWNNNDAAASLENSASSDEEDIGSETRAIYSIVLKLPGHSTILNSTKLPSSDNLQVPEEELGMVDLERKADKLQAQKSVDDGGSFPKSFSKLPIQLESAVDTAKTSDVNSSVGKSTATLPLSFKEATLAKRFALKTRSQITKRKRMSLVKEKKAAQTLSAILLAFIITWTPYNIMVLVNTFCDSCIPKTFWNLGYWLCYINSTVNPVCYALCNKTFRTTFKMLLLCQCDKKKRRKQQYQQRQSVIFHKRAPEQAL
# Assay comment: Positive allosteric modulation of human M3
Attribute measured: EC50

Query smiles	Attribute measured	Val
Cc1ccc(OC2CCN(c3ncnc4ccc(F)cc34)CC2)cn1	EC50	> 10 µM

----------
# Tested on: Muscarinic acetylcholine receptor M2 (Homo sapiens)
# Sequence (P08172 whole entry): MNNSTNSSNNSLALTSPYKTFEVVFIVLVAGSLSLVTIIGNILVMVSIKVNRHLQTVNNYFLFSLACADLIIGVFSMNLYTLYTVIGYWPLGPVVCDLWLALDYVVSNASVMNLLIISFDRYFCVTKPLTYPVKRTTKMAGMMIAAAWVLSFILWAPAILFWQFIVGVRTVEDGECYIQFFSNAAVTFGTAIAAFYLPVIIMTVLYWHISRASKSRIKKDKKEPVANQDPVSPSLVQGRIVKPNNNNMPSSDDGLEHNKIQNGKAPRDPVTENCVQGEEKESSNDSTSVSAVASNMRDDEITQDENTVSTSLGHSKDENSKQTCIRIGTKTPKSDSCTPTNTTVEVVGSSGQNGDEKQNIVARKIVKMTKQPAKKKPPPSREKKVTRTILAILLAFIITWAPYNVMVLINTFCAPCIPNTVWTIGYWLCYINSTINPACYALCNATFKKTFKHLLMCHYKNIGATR
# Assay comment: Positive allosteric modulation of human M2

Query smiles	EC50
Cc1ccc(OC2CCN(c3ncnc4ccc(F)cc34)CC2)cn1	> 10 µM

----------
# Tested on: Muscarinic acetylcholine receptor M4 (Homo sapiens)
# Assay comment: Positive allosteric modulation of human M4 receptor expressed in CHO cells coexpressing Gqi5 by calcium mobilization assay relative to acetylcholine
# Format: functional, cell-based
Collected %max values appear next to each entry.
Attribute measured: %max (%)

Query smiles	Attribute measured	Units	Val
Cc1sc2ncnc(N3CCC(C(=O)Nc4ccc(S(C)(=O)=O)cc4)CC3)c2c1C	%max	%	62
Cc1ccc(OC2CCN(c3cc(C)nc4ccc(F)cc34)CC2)cn1	%max	%	64
Cc1sc2ncnc(N3CCC(C(=O)NCc4ccc(S(N)(=O)=O)cc4)CC3)c2c1C	%max	%	67
Cc1sc2ncnc(N3CCC(C(N)=O)CC3)c2c1C	%max	%	25
Cc1sc2ncnc(N3CCC(Oc4ccc(F)nc4)CC3)c2c1C	%max	%	68
Cc1ccc(OC2CCN(c3ncnc4ccc(F)cc34)CC2)cn1	%max	%	62
Cc1sc2ncnc(N3CCC(C(=O)N4CCCC4)CC3)c2c1C	%max	%	68
Cc1sc2ncnc(N3CCC(C(=O)N4CCOCC4)CC3)c2c1C	%max	%	65
Cc1sc2ncnc(N3CCC(C(=O)Nc4ccc(C(N)=O)cc4)CC3)c2c1C	%max	%	56
Cc1sc2ncnc(N3CCC(C(=O)Nc4cc(Cl)ccc4Cl)CC3)c2c1C	%max	%	69
Cc1ccc(OC2CCN(c3nc(C)nn4ccc(C)c34)CC2)cn1	%max	%	58
Cc1sc2ncnc(N3CCC(C(=O)Nc4ccc(N5CCNC5=O)cc4)CC3)c2c1C	%max	%	40
Cc1sc2ncnc(N3CCC(C(=O)Nc4ccc(F)cc4Cl)CC3)c2c1C	%max	%	55
Cc1sc2ncnc(N3CCC(C(=O)N4CCCC(F)(F)C4)CC3)c2c1C	%max	%	60
Cc1sc2ncnc(N3CCC(Oc4ccc(Cl)nc4)CC3)c2c1C	%max	%	64
Cc1sc2ncnc(N3CCC(C(=O)Nc4ccc(S(N)(=O)=O)cc4)CC3)c2c1C	%max	%	76
Cc1ccc2ncnc(N3CCC(Oc4ccc(C)nc4)CC3)c2c1	%max	%	49
Cc1ncc(OC2CCN(c3ncnc4sc(C)c(C)c34)CC2)cn1	%max	%	60
Cc1ccc(OC2CCN(c3ncnc4sc(C)c(C)c34)CC2)cn1	%max	%	65
CNC(=O)c1ccc(NC(=O)C2CCN(c3ncnc4sc(C)c(C)c34)CC2)cc1	%max	%	70
Cc1sc2ncnc(N3CCC(C(=O)N4CCSCC4)CC3)c2c1C	%max	%	75
Cc1sc2ncnc(N3CCC(Oc4ccc5c(c4)CCO5)CC3)c2c1C	%max	%	74
Cc1sc2ncnc(N3CCC(C(=O)N4CC[C@H](F)C4)CC3)c2c1C	%max	%	79
Cc1sc2ncnc(N3CCC(C(=O)N4CCCc5cc(S(C)(=O)=O)ccc54)CC3)c2c1C	%max	%	69
